Every entry's value here was drawn from patent US11168088B2.

pIC50: −log10 of the molar value.
CDK1 (Homo sapiens (Human)): recorded pIC50 for assorted molecules
Sequence (P06493 whole entry): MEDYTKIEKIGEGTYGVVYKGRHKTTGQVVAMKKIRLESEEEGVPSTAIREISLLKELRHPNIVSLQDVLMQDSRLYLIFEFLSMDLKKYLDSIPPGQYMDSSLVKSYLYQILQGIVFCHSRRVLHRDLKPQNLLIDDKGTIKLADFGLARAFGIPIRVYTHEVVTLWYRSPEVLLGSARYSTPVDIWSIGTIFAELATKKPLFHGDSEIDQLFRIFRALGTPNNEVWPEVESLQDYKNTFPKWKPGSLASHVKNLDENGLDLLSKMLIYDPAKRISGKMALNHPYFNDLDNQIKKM
Sequence (P14635 whole entry partner): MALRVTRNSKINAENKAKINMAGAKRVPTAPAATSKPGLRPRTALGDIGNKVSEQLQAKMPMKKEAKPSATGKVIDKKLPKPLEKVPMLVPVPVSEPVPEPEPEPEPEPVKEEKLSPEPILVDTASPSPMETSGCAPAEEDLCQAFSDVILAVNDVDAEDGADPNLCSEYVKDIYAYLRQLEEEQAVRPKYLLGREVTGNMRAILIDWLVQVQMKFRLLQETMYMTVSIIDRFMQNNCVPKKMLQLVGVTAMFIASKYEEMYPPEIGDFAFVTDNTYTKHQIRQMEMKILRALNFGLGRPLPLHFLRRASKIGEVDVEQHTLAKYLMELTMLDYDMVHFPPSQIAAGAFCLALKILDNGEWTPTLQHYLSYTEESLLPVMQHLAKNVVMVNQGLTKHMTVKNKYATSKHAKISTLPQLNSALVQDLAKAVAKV
readout: pIC50

>  <molecule>
c1cc(Nc2ncc3c(n2)-c2c(cnn2C2CCCC2)CC3)ncc1N1CCNCC1 [Compound P-9]

>  <readout>
pIC50

>  <comparator>
=

>  <valueObserved>
5.29

$$$$
>  <molecule>
CCc1nc2c(n1CC)-c1nc(Nc3ccc(N4CCNCC4)cn3)ncc1C2 [Compound P-21]

>  <readout>
pIC50

>  <comparator>
=

>  <valueObserved>
5.20

$$$$
>  <molecule>
CC(C)c1c2c(nn1C)C1(CC1)c1cnc(Nc3ccc(N4CCNCC4)cn3)nc1-2 [Compound P-57]

>  <readout>
pIC50

>  <comparator>
=

>  <valueObserved>
6.03

$$$$
>  <molecule>
CC(C)c1c2c3nc(Nc4ccc(N5CCNCC5)cn4)ncc3n(C)c2nn1C [Compound P-58]

>  <readout>
pIC50

>  <comparator>
<

>  <valueObserved>
5.00

$$$$
>  <molecule>
CC(C)c1c2c(nn1C)Cc1cnc(Nc3ccc(N4CCNCC4)cn3)nc1-2 [Compound P-8]

>  <readout>
pIC50

>  <comparator>
<

>  <valueObserved>
5.00

$$$$
>  <molecule>
CCc1nc2c(n1C(C)C)-c1nc(Nc3ccc(CN4CCN(CC)CC4)cn3)ncc1CC2 [Compound P-3]

>  <readout>
pIC50

>  <comparator>
=

>  <valueObserved>
6.04

$$$$
>  <molecule>
c1cc(Nc2ncc3c(n2)-c2c(nc(C4CC4)n2C2CCCC2)C3)ncc1N1CCNCC1 [Compound P-39]

>  <readout>
pIC50

>  <comparator>
=

>  <valueObserved>
5.98

$$$$
>  <molecule>
CC(C)c1c2c(nn1C)C(C)(C)c1cnc(Nc3ccc(N4CCNCC4)cn3)nc1-2 [Compound P-42]

>  <readout>
pIC50

>  <comparator>
=

>  <valueObserved>
5.36

$$$$

====

Experiment: Pharmacokinetics and brain distribution test
Assay type: in vivo, SD rats
Settings: male, SD, rat; rats, oral administration of 10 mg/kg, CSF; read-out: AUC in CSF

>  <compound>
CCN1CCN(Cc2ccc(Nc3ncc4c(n3)-c3c(nc(C5CC5)n3C(C)C)C4)nc2)CC1.O=CO [Compound P-53]

>  <resultUnit>
ng·h/mL

>  <AUC>
204

$$$$

====

CDK6 (Homo sapiens (Human)): recorded IC50 for assorted compounds
Sequence (Q00534 whole entry, looked up): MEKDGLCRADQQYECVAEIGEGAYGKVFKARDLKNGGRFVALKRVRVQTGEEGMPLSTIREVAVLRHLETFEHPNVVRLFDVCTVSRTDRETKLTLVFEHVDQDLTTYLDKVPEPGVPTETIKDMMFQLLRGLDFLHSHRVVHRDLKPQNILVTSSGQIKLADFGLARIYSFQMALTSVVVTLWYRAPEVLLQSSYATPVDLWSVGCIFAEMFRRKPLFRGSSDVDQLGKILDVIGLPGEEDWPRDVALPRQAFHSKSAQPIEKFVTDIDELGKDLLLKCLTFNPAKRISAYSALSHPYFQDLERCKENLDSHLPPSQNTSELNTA
Sequence (P24385 whole entry partner, looked up): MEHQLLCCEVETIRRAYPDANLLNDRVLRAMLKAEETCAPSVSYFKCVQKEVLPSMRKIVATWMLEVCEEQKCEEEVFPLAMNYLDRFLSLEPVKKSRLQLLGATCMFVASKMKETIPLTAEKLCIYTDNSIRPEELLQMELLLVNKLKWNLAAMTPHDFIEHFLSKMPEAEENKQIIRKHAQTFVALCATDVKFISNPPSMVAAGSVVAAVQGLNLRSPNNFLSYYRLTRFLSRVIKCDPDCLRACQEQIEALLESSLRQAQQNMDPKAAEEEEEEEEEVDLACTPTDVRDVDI

>  <compound>
CCn1nc2c(c1C(C)C)-c1nc(Nc3ccc(N4CCNCC4)cn3)ncc1CC2 [Compound P-4]

>  <IC50>
33 nM

$$$$
>  <compound>
CC(C)c1c2c(nn1C)C(C)c1cnc(Nc3ccc(N4CCNCC4)cn3)nc1-2 (stereo not shown) [Compound P-47]

>  <IC50>
46 nM

$$$$
>  <compound>
CC(C)c1c2c(nn1C)CCc1cnc(Nc3ccc(N4CCNCC4)cn3)nc1-2 [Compound P-14]

>  <IC50>
20 nM

$$$$
>  <compound>
c1cc(Nc2ncc3c(n2)-c2nn(C4CCCC4)cc2CC3)ncc1N1CCNCC1 [Compound P-36]

>  <IC50>
714 nM

$$$$
>  <compound>
CC(C)n1ncc2c1-c1nc(Nc3ccc(N4CCNCC4)cn3)ncc1CC2(C)C [Compound P-51]

>  <IC50>
117 nM

$$$$
>  <compound>
CC(C)c1c2c(nn1C)COc1cnc(Nc3ccc(N4CCNCC4)cn3)nc1-2 [Compound P-30]

>  <IC50>
34 nM

$$$$
>  <compound>
CCn1nc2c(c1C(C)C)-c1nc(Nc3ccc(N4CCNCC4)cn3)ncc1OC2 [Compound P-49]

>  <IC50>
70 nM

$$$$
>  <compound>
CCN1CCN(c2ccc(Nc3ncc4c(n3)-c3c(nn(C)c3C(C)C)C4)nc2)CC1 [Compound P-7]

>  <IC50>
42 nM

$$$$
>  <compound>
Cc1nc2c(n1C1CC1)-c1nc(Nc3ccc(N4CCNCC4)cn3)ncc1C2 [Compound P-11]

>  <IC50>
165 nM

$$$$
>  <compound>
CC(C)c1c2c(nn1C)Cc1cnc(Nc3ccc(N4CCNCC4)cn3)nc1-2 [Compound P-8]

>  <IC50>
161 nM

$$$$
>  <compound>
Cc1nc2c(n1C(C)C)-c1nc(Nc3ccc(N4CCNCC4)cn3)ncc1CC2 [Compound P-24]

>  <IC50>
11 nM

$$$$
>  <compound>
c1cc(Nc2ncc3c(n2)-c2c(cnn2C2CCCC2)CC3)ncc1N1CCNCC1 [Compound P-9]

>  <IC50>
40 nM

$$$$
>  <compound>
CCc1nc2c(n1C(C)C)-c1nc(Nc3ccc(CN4CCN(CC)CC4)cn3)ncc1C2 [Compound P-5]

>  <IC50>
256 nM

$$$$
>  <compound>
CC(C)n1nc(C#N)c2c1-c1nc(Nc3ccc(N4CCNCC4)cn3)ncc1CC2 [Compound P-52]

>  <IC50>
33 nM

$$$$
>  <compound>
Cc1c2c(nn1C)CCc1cnc(Nc3ccc(N4CCN(C)CC4)cn3)nc1-2 [Compound P-66]

>  <IC50>
63 nM

$$$$
>  <compound>
CCc1nc2c(n1C(C)C)-c1nc(Nc3ccc(N4CCNCC4)cn3)ncc1C2 [Compound P-22]

>  <IC50>
43 nM

$$$$
>  <compound>
CC(C)c1c2c3nc(Nc4ccc(N5CCNCC5)cn4)ncc3n(C)c2nn1C [Compound P-58]

>  <IC50>
263 nM

$$$$
>  <compound>
CCN1CCN(Cc2ccc(Nc3ncc4c(n3)-c3c(nn(CC)c3C(C)C)CC4)nc2)CC1 [Compound P-2]

>  <IC50>
38 nM

$$$$
>  <compound>
CCc1nc2c(n1C(C)C)-c1nc(Nc3ccc(CN4CCN(CC)CC4)cn3)ncc1CC2 [Compound P-3]

>  <IC50>
59 nM

$$$$
>  <compound>
CC(C)c1c2c(nn1C)CC1(CC1)c1cnc(Nc3ccc(N4CCNCC4)cn3)nc1-2 [Compound P-56]

>  <IC50>
831 nM

$$$$
>  <compound>
CC(C)n1ncc2c1-c1nc(Nc3ccc(N4CCNCC4)cn3)ncc1CC2 [Compound P-25]

>  <IC50>
31 nM

$$$$
>  <compound>
CCn1nc2c(c1C(C)C)-c1nc(Nc3ccc(N4CCNCC4)cn3)ncc1C(C)(C)C2 [Compound P-48]

>  <IC50>
897 nM

$$$$
>  <compound>
Cc1nc2c(n1C1CCCC1)-c1nc(Nc3ccc(N4CCNCC4)cn3)ncc1C2 [Compound P-13]

>  <IC50>
43 nM

$$$$
>  <compound>
c1cc(Nc2ncc3c(n2)-c2c(cnn2C2CCOC2)CC3)ncc1N1CCNCC1 (stereo not shown) [Compound P-37]

>  <IC50>
362 nM

$$$$
>  <compound>
Cc1nc2c(n1CC1CC1)-c1nc(Nc3ccc(N4CCNCC4)cn3)ncc1C2 [Compound P-28]

>  <IC50>
121 nM

$$$$
